target: Human PI3K gamma (Homo sapiens); construct: His (N); host or cells: SF9 insect cells (baculovirus); experiment: Human PI3K gamma enzyme assay (HTRF); type: biochemical; settings: at a 1.0 μM concentration; read-out: PI3Kγ Percent Inhibition
Sequence (P48736 whole entry): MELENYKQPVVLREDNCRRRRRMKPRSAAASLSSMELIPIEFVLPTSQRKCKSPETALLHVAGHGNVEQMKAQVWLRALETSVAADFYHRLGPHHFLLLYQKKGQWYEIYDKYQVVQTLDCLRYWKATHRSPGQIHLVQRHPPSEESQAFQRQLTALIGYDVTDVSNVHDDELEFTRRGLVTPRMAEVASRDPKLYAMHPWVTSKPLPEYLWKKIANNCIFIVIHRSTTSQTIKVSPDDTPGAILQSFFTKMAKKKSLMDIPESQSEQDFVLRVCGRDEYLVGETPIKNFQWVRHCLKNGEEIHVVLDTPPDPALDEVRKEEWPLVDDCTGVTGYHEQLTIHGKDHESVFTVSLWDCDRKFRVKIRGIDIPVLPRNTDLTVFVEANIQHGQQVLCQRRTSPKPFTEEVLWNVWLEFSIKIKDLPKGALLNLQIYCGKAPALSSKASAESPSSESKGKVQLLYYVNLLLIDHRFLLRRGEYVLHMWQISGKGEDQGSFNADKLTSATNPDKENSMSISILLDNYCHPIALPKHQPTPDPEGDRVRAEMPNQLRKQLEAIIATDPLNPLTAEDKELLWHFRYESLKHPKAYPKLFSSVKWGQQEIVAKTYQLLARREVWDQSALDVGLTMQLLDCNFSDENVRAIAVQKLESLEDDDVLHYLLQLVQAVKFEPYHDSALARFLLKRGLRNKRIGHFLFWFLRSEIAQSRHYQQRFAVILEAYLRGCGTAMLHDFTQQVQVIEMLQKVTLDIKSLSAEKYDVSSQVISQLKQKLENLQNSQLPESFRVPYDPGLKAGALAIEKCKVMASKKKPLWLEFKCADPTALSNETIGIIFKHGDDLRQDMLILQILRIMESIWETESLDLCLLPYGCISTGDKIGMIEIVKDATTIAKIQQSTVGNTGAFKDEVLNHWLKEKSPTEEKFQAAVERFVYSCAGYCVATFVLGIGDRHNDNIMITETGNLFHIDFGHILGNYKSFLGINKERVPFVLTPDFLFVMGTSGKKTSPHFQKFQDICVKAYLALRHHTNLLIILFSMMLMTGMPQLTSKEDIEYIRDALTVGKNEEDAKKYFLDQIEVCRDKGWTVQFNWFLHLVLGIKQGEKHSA
Endpoint name: inhibition at 1 µM (%)
Give bare numbers, in %.

{"columns": ["Molecular string", "inhibition at 1 µM [%]"],
 "data": [
  ["N#Cc1c(N2CCOCC2)sc(C(=O)O)c1Cc1ccc(Cl)cc1F", 36.6],
  ["O=C(O)c1sc(N2CCOCC2)nc1Cc1ccc(F)cc1Cl", 6.4],
  ["N#Cc1c(N2CCOCC2)sc(C(=O)O)c1Cc1ccc(Br)cc1", 51.8],
  ["N#Cc1c(N2CCOCC2)sc(C(=O)O)c1Cc1ccc(F)cc1", 17.8]
]}

Return reported inhibition at 1 µM; argument: O=C(O)c1sc(N2CCOCC2)nc1Cc1ccc(Cl)c(Cl)c1
56.9

====

biological target: Human PI3K alpha (Homo sapiens, UniProt P42336); construct: His (N); host or cells: SF9 insect cells (baculovirus); assay: Human PI3K alpha enzyme assay (HTRF); type: biochemical; conditions: concentration not given; b1387 states 1.1 μM for PI3K α and β; read-out: p110 alpha Percent Inhibition
Sequence (P42336 whole entry, one chain of several): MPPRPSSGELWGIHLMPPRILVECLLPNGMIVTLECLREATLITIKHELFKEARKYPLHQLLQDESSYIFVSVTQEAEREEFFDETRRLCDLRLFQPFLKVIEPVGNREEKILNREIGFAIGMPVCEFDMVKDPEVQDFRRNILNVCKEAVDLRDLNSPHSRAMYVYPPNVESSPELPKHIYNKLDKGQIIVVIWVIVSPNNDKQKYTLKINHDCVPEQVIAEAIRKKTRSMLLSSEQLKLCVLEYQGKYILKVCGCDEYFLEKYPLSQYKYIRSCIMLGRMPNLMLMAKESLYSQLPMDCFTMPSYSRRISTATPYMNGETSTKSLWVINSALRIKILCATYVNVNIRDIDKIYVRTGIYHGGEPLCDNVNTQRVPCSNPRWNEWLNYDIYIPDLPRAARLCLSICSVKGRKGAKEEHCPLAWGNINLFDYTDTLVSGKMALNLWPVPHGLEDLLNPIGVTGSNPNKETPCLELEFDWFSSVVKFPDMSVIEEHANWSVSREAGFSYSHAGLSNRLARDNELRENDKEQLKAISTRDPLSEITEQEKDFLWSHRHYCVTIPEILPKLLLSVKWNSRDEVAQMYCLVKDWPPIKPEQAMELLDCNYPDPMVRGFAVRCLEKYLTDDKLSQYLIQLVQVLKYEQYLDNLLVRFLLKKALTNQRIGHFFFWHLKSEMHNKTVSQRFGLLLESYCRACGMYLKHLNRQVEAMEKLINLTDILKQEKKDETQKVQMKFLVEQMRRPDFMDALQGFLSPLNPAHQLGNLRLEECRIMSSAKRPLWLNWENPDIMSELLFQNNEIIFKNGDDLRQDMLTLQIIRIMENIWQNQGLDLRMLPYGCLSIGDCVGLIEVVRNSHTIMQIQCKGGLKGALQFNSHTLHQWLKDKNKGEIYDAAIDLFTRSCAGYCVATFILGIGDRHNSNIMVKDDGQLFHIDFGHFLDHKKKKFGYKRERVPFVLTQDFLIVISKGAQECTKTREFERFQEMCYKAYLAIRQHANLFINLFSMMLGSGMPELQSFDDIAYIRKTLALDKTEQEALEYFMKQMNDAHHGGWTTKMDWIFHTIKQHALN
Endpoint name: inhibition at 1.1 µM (%)
Numbers only, in %.

Would you please look over these solved cases?
{"columns": ["Compound", "Target system", "Output unit", "inhibition at 1.1 µM"],
 "data": [
  ["CS(=O)(=O)NC(=O)c1sc(N2CCOCC2)c(C#N)c1Cc1ccc(Cl)c(Cl)c1", "Human PI3K alpha (Homo sapiens, UniProt P42336)", "%", 18],
  ["OC(c1ccc2c(c1)OCCO2)c1cc(-c2ccncc2)sc1-c1nnc[nH]1 (centres unmarked)", "Human PI3K alpha (Homo sapiens, UniProt P42336)", "%", 29],
  ["CC(=O)Nc1cc(-c2cc(C(c3ccc(Cl)cc3)N3CCC[C@@H]3CO)c(-c3nnc[nH]3)s2)ccn1 (some centres unmarked)", "Human PI3K alpha (Homo sapiens, UniProt P42336)", "%", 82],
  ["N#Cc1c(N2CCOCC2)sc(C(=O)O)c1Cc1cc2ccc(Cl)cc2[nH]1", "Human PI3K alpha (Homo sapiens, UniProt P42336)", "%", 90],
  ["CN(C)C(c1ccc(Cl)cc1)c1c(C(=O)O)sc(N2CCOCC2)c1C#N (centres unmarked)", "Human PI3K alpha (Homo sapiens, UniProt P42336)", "%", 15]
]}

# return inhibition at 1.1 µM for each item in the list
1. COc1ccc(C(O)c2cc(-c3ccncc3)sc2-c2nnc[nH]2)c(F)c1 (centres unmarked)
2. COc1ccc(C(O)c2cc(-c3ccncc3)sc2-c2nnc[nH]2)cc1C (centres unmarked)
3. CC(=O)Nc1cc(-c2cc(C(NCC(F)(F)F)c3ccc(Cl)cc3)c(-c3nnc[nH]3)s2)ccn1 (centres unmarked)

[32, 12, 78]

====

Target: Human PI3K delta (Homo sapiens)
Construct: His (N); host or cells: SF9 insect cells (baculovirus)
Sequence (O00329 whole entry, one chain of several): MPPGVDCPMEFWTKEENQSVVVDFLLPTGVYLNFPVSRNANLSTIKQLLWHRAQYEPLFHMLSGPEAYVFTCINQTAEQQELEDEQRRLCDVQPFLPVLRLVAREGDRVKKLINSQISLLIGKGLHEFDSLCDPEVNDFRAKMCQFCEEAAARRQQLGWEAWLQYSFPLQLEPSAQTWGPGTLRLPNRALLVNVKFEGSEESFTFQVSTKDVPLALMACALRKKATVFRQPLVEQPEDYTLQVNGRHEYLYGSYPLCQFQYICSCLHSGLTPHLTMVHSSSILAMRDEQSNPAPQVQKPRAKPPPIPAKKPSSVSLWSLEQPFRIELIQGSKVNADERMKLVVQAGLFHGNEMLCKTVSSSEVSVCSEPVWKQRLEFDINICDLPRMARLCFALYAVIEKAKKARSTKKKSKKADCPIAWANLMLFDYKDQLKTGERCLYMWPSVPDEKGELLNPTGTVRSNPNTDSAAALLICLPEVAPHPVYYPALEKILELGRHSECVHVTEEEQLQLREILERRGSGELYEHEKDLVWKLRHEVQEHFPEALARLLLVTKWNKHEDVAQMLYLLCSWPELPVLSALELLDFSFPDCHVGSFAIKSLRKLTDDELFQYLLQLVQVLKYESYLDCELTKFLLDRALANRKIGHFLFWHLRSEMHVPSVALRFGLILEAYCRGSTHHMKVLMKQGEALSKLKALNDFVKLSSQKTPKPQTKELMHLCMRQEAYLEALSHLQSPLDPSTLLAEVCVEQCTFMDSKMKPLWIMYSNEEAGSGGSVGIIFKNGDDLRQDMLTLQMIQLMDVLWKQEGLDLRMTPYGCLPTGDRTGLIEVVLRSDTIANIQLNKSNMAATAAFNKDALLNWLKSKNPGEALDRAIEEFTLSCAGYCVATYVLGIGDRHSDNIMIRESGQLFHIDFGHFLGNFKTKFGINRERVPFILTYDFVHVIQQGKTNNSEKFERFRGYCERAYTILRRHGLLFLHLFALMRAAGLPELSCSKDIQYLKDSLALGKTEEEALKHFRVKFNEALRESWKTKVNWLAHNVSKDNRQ
Test: Human PI3K delta enzyme assay (HTRF)
Type: biochemical
Conditions: concentration not given; b1389 states 1.0 μM for PI3K δ and γ; read-out: p110 delta Percent Inhibition
Procedure: The catalytic subunits of PI3Ks are cloned into either pDEST8(p110 alpha) or pDEST10(p110beta, p110delta, and p110gamma) as N-terminal His tagged fusion proteins using the Gateway system (Invitrogen, catalog#11804-010 for pDEST8 and 11806-015 for pDEST10). […] For the assay methods described above, test compound percent inhibition, at various concentrations, is calculated relative to control (DMSO and EDTA) treated samples. […]
Kindly state inhibition at 1 µM for each of the entries shown.
Answers are plain numbers, in %.

{"columns": ["Compound", "Target system", "Number"],
 "data": [
  ["CC(=O)Nc1cc(-c2nc(Cc3ccc4ccccc4c3)c(C(=O)O)s2)ccn1 [Compound 177]", "Human PI3K delta (Homo sapiens)", 106]
]}

# return inhibition at 1 µM for each item in the list
1. Nc1nccc(-c2sc(-c3ccncc3)nc2Cc2ccc(Cl)cc2)n1 [Compound 150]
2. CC(=O)Nc1cc(-c2cc(C(c3ccc(Cl)cc3)N3CCN(C)CC3)c(-c3nnc[nH]3)s2)ccn1 (centres unmarked) [Compound 267]

1. 35
2. 111

# return inhibition at 1 µM for each item in the list
1. N#Cc1c(N2CCOCC2)sc(C(=O)O)c1Cc1cc(F)c(Cl)cc1F [Compound 300]
2. OC(c1ccc(Cl)cc1)c1cc(-c2ccnc(Nc3ncco3)c2)sc1-c1nnc[nH]1 (centres unmarked) [Compound 147]
3. N#Cc1c(-c2ccnnc2)sc(-c2nnc[nH]2)c1C(c1ccc(Cl)cc1)N1CCNCC1 (centres unmarked) [Compound 227]

[97, 107, 24]

# return inhibition at 1 µM for each item in the list
1. OC(c1ccc(-c2cccnc2)cc1)c1cc(-c2ccncc2)sc1-c1nnc[nH]1 (centres unmarked) [Compound 214]
2. N#Cc1c(N2CCOCC2)sc(C(=O)O)c1Cc1ccc2ccc(F)cc2c1 [Compound 287]

1. 46
2. 112

====

target: Human PI3K delta (Homo sapiens); construct: His (N); host or cells: SF9 insect cells (baculovirus); experiment: Human PI3K delta enzyme assay (HTRF); type: biochemical; conditions: concentration not given; b1389 states 1.0 μM for PI3K δ and γ; read-out: p110 delta Percent Inhibition
Endpoint name: inhibition at 1 µM (%)
One number for each entry, in %.

Would you please look over these solved cases?
{"columns": ["Compound", "Number"],
 "data": [
  ["O=C(O)c1sc(N2CCOCC2)nc1Cc1cc2ccccc2o1", 98],
  ["CC(=O)Nc1cc(-c2cc(C(NCC3CCCC3)c3ccc(Cl)cc3)c(-c3nnc[nH]3)s2)ccn1 (centres unmarked)", 98],
  ["COc1ccc2cc(Cc3nc(N4CCOCC4)sc3C(=O)O)ccc2c1", 76],
  ["N#Cc1c(N2CCOCC2)sc(C(=O)O)c1Cc1ccc2cc(F)ccc2c1", 114],
  ["COc1ccc(C(O)c2cc(-c3ccncc3)sc2-c2nnc[nH]2)c(F)c1 (centres unmarked)", 100]
]}

# return inhibition at 1 µM for each item in the list
1. OC(c1cc2ccccc2cc1F)c1cc(-c2ccncc2)sc1-c1nnc[nH]1 (centres unmarked)
2. N#Cc1c(N2CCOCC2)sc(-c2nnn[nH]2)c1C(F)(F)c1ccc2ccccc2c1
3. OC(c1ccc(-c2cncnc2)cc1)c1cc(-c2ccncc2)sc1-c1nnc[nH]1 (centres unmarked)

[109, 96, 48]

====

Kindly state IC50 for each of the entries shown.
biological target: UniProt P42338
Sequence (P42338 whole entry): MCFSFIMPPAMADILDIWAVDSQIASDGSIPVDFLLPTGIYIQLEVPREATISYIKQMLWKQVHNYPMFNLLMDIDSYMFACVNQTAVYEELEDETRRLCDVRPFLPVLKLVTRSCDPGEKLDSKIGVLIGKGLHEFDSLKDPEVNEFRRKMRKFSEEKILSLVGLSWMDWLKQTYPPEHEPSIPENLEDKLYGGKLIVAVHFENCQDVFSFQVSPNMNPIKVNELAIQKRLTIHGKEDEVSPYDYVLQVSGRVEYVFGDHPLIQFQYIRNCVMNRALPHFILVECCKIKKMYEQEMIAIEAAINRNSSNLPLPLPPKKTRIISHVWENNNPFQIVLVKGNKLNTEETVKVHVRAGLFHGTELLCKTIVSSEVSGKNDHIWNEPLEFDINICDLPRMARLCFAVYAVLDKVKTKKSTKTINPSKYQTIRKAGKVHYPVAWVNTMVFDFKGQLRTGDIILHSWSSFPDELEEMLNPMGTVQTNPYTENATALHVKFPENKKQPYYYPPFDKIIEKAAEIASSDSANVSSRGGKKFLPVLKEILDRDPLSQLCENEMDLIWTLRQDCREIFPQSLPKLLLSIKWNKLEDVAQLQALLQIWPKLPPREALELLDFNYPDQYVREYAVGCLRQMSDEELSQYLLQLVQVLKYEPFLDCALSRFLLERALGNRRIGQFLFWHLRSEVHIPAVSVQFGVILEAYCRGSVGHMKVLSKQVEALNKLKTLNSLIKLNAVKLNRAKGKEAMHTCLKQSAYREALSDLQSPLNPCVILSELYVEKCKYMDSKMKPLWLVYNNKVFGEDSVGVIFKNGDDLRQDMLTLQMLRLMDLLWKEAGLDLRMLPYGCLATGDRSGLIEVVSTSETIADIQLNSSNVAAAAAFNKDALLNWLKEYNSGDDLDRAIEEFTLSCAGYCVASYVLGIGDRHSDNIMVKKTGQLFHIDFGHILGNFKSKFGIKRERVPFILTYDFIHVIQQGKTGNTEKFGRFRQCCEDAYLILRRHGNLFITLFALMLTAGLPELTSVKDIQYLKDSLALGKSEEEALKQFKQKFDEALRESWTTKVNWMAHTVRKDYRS
Sequence (P27986 whole entry partner): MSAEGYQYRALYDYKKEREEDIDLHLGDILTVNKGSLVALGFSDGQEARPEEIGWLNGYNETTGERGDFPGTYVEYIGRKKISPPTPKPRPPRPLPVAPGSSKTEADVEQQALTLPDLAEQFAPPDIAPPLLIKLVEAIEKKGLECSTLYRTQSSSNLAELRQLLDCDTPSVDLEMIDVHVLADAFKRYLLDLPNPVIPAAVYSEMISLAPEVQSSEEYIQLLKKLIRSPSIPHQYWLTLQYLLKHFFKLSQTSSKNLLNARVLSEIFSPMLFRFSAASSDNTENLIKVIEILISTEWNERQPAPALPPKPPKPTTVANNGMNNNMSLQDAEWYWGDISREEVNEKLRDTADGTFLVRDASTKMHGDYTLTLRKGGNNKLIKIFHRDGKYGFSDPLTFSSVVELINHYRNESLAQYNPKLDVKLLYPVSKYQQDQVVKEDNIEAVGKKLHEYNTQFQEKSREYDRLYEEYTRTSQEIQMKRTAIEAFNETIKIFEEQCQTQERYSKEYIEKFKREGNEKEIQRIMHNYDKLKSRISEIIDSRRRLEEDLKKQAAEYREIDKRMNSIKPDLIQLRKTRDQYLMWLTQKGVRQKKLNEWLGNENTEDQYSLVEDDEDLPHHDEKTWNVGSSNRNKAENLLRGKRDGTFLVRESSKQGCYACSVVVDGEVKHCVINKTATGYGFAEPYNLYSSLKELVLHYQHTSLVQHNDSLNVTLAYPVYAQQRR

Would you please look over these solved cases?
{"columns": ["Compound", "Endpoint name", "Result"],
 "data": [
  ["CC(=O)Nc1cc(-c2cc(C(c3ccc(Cl)cc3)N(C)C)c(-c3nnc[nH]3)s2)ccn1 (stereo not shown) [Compound 86]", "IC50", "< 100 nM"],
  ["Nc1cc(-c2cc(C(O)c3ccc(Cl)cc3)c(-c3nnc[nH]3)s2)ccn1 (stereo not shown) [Compound 75]", "IC50", "< 100 nM"],
  ["CC(=O)Nc1cc(-c2nc(Cc3ccc(C)cc3)c(-c3ncc[nH]3)s2)ccn1 [Compound 24]", "IC50", "> 1000 nM"],
  ["N#Cc1cc(-c2cc([C@H](O)c3ccc(Cl)cc3)c(-c3nnc[nH]3)s2)ccn1 [Compound 3]", "IC50", "< 100 nM"],
  ["O=C(O)c1sc(N2CCOCC2)nc1Cc1ccc(Cl)cc1 [Compound 91]", "IC50", "< 100 nM"],
  ["Cc1nn2ccc(CNCCCN)cc2c1-c1nc(Cc2ccc(Cl)cc2)c(-c2nnc[nH]2)s1 [Compound 38]", "IC50", "100 to 1000 nM"],
  ["Clc1ccc(Cc2nc(-c3ccncc3)sc2-c2nnc[nH]2)cc1Cl [Compound 7]", "IC50", "< 100 nM"],
  ["Fc1cc(-c2nc(Cc3ccc(Cl)cc3)c(-c3nnc[nH]3)s2)ccn1 [Compound 37]", "IC50", "100 to 1000 nM"]
]}

# return IC50 for each item in the list
1. Clc1ccc(Cc2nc(-c3ccncc3)sc2-c2nnc[nH]2)cc1 [Compound 76]
2. c1ccc2cc(Cc3nc(-c4ccncc4)sc3-c3nnc[nH]3)ccc2c1 [Compound 87]
3. O=C1CCc2c(-c3cc(C(O)c4ccc(Cl)cc4)c(-c4nnc[nH]4)s3)ccnc2N1 (stereo not shown) [Compound 64]
4. O[C@H](c1ccc(Cl)cc1)c1nc(-c2ccncc2)sc1-c1nnc[nH]1 (single isomer, unassigned) [Compound 19]

1. 100 to 1000 nM
2. < 100 nM
3. 100 to 1000 nM
4. < 100 nM

# return IC50 for each item in the list
1. OC(c1ccc(Cl)cc1)c1cc(-c2ccncc2Cl)sc1-c1nc[nH]n1 (stereo not shown) [Compound 25]
2. O[C@@H](c1ccc(Cl)cc1)c1cc(-c2ccnc(F)c2)sc1-c1nnc[nH]1 [Compound 26]
3. Cc1noc(C)c1-c1cc(C(O)c2ccc(Cl)cc2)c(-c2nnc[nH]2)s1 (stereo not shown) [Compound 34]
4. CNc1cc(-c2nc(Cc3ccc(Cl)cc3)c(-c3nnc[nH]3)s2)ccn1 [Compound 63]

1: 100 to 1000 nM; 2: 100 to 1000 nM; 3: 100 to 1000 nM; 4: > 1000 nM
